Target: BIKE (Homo sapiens, UniProt Q9NSY1)
Construct: gene BMP2K; catalytic domain-containing construct
Sequence (Q9NSY1 whole entry, the tested form may be a part): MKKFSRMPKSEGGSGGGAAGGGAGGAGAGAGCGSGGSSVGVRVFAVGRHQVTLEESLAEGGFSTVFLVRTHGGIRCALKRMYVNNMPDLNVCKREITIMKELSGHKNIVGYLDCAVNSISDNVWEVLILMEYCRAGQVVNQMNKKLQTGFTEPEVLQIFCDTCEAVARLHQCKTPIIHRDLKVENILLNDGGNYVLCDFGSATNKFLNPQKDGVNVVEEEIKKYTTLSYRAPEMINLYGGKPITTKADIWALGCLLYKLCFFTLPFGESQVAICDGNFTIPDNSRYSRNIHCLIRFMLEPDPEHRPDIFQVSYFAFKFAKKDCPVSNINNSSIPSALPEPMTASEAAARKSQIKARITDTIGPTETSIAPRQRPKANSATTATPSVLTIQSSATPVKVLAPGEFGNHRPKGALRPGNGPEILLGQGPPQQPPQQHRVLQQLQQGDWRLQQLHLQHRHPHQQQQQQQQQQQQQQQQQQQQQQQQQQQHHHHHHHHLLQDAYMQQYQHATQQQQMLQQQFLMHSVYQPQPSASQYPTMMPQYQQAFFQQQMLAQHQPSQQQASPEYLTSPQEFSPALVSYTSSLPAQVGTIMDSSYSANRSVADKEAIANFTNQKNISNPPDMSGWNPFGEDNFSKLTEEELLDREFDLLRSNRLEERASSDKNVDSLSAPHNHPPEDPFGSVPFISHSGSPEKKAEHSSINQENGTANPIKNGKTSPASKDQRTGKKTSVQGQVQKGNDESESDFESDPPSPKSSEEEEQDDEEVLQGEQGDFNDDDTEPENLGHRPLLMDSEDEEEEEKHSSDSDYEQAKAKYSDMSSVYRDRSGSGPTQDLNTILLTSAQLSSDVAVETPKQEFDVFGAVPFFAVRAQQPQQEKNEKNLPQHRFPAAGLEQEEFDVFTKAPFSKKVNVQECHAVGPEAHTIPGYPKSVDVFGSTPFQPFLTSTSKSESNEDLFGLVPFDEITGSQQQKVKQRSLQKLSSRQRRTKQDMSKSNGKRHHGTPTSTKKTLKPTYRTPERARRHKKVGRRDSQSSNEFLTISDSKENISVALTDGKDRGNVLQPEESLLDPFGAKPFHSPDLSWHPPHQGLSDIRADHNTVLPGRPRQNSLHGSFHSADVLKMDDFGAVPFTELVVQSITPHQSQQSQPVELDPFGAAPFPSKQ
Assay: biochemical
Design: Thermal shift assay (DSF, SYPRO Orange), 2 uM kinase domain, mean delta Tm of triplicates versus DMSO
Details: read-out: BIKE
This section presents compounds with their documented ΔTm at 12.5 µM values.

- COMPOUND: "CCS(=O)(=O)c1cccc(-c2cc(C(=O)NC3CCN(C)CC3)c(C)c3[nH]c4ncc(C)cc4c23)c1 [TAK-901]"
  UOM: "°C"
  ΔTm at 12.5 µM: 12
- COMPOUND: "Cc1cc(C(=O)NOCCO)c(Nc2ccc(I)cc2F)n(C)c1=O [AZD8330]"
  UOM: "°C"
  ΔTm at 12.5 µM: 0.227
- COMPOUND: "CNC(=O)c1c(F)cccc1Nc1nc(Nc2cc3c(ccn3C(=O)CN(C)C)cc2OC)nc2[nH]ccc12 [GSK1838705A]"
  UOM: "°C"
  ΔTm at 12.5 µM: 0.543
- COMPOUND: "CNC(=O)c1cc(Oc2ccc(NC(=O)Nc3cc(C(C)(C)C)nn3-c3ccc4ncccc4c3)c(F)c2)ccn1 [Rebastinib]"
  UOM: "°C"
  ΔTm at 12.5 µM: 0.707
- COMPOUND: "O=c1sn(-c2cccc3ccccc23)c(=O)n1Cc1ccccc1 [Tideglusib]"
  UOM: "°C"
  ΔTm at 12.5 µM: 0.245
- COMPOUND: "C#Cc1cccc(Nc2ncnc3cc(OCCOC)c(OCCOC)cc23)c1 [Erlotinib]"
  UOM: "°C"
  ΔTm at 12.5 µM: 5.66
- COMPOUND: "Cc1[nH]c(/C=C2\\C(=O)Nc3ccccc32)c(C)c1CCC(=O)O [Orantinib]"
  UOM: "°C"
  ΔTm at 12.5 µM: 12
- COMPOUND: "Cc1cc(Nc2cc(CN3CCOCC3)c3nc(C)c(Cc4ccc(Cl)cc4F)n3n2)n[nH]1 [Gandotinib]"
  UOM: "°C"
  ΔTm at 12.5 µM: 10.2
- COMPOUND: "O=C(O)c1ccc(-c2c[nH]c3ncc(-c4ccccc4)cc23)cc1C1CCCC1 [GSK650394]"
  UOM: "°C"
  ΔTm at 12.5 µM: 13
- COMPOUND: "Cc1cnc(Nc2ccc(F)cc2Cl)nc1-c1c[nH]c(C(=O)N[C@H](CO)c2cccc(Cl)c2)c1 [VX-11E]"
  UOM: "°C"
  ΔTm at 12.5 µM: 0.147
- COMPOUND: "COc1cc(Nc2ncc(F)c(Nc3ccc4c(n3)NC(=O)C(C)(C)O4)n2)cc(OC)c1OC [Tamatinib]"
  UOM: "°C"
  ΔTm at 12.5 µM: 6.55
- COMPOUND: "Cc1cc2c(F)c(Oc3ncnn4cc(OC[C@@H](C)O)c(C)c34)ccc2[nH]1 [Brivanib]"
  UOM: "°C"
  ΔTm at 12.5 µM: 0.81
- COMPOUND: "CN(C)C/C=C/C(=O)Nc1cc2c(Nc3ccc(F)c(Cl)c3)ncnc2cc1O[C@H]1CCOC1 [Afatinib]"
  UOM: "°C"
  ΔTm at 12.5 µM: 1.95
- COMPOUND: "CCS(=O)(=O)N1CC(CC#N)(n2cc(-c3ncnc4[nH]ccc34)cn2)C1 [baricitinib]"
  UOM: "°C"
  ΔTm at 12.5 µM: 10.2
- COMPOUND: "Oc1c2ccccc2c2c3c(cccc13)N=N2 [SP600125]"
  UOM: "°C"
  ΔTm at 12.5 µM: 14.2
- COMPOUND: "C#Cc1cccc(Nc2ncnc3cc4c(cc23)OCCOCCOCCO4)c1 [Icotinib]"
  UOM: "°C"
  ΔTm at 12.5 µM: 4.47
- COMPOUND: "Cc1cn(-c2cc(NC(=O)c3ccc(C)c(Nc4nccc(-c5cccnc5)n4)c3)cc(C(F)(F)F)c2)cn1 [Nilotinib]"
  UOM: "°C"
  ΔTm at 12.5 µM: 1.06

* * *

Molecular target: BIKE (Homo sapiens, UniProt Q9NSY1)
Construct: gene BMP2K; catalytic domain-containing construct
Test: biochemical
Design: Thermal shift assay (DSF, SYPRO Orange), 2 uM kinase domain, mean delta Tm of triplicates versus DMSO
Settings: read-out: BIKE
Please assign Not satisfied whenever ΔTm at 12.5 µM is at or above 0.5 °C, and Satisfied whenever it is below.

- SMILES INPUT: "O=C(Nc1cccc(Nc2ncc(Br)c(NCCc3cnc[nH]3)n2)c1)N1CCCC1"
  ASSIGNED LABEL: "Not satisfied"
- SMILES INPUT: "C[C@@H]1CCN(C(=O)CC#N)C[C@@H]1N(C)c1ncnc2[nH]ccc12"
  ASSIGNED LABEL: "Not satisfied"
- SMILES INPUT: "C=CCn1c(=O)c2cnc(Nc3ccc(N4CCN(C)CC4)cc3)nc2n1-c1cccc(C(C)(C)O)n1"
  ASSIGNED LABEL: "Not satisfied"
- SMILES INPUT: "Cn1c(Nc2ccc(C(F)(F)F)cc2)nc2cc(Oc3ccnc(-c4ncc(C(F)(F)F)[nH]4)c3)ccc21"
  ASSIGNED LABEL: "Not satisfied"
- SMILES INPUT: "O=C(Nc1c[nH]nc1-c1nc2ccc(CN3CCOCC3)cc2[nH]1)NC1CC1"
  ASSIGNED LABEL: "Not satisfied"
- SMILES INPUT: "C[C@H](Nc1ncnc2nc[nH]c12)c1cc2cccc(Cl)c2c(=O)n1-c1ccccc1"
  ASSIGNED LABEL: "Satisfied"
- SMILES INPUT: "COc1cc(F)c(F)c(Nc2ccc(I)cc2F)c1NS(=O)(=O)C1(C[C@H](O)CO)CC1"
  ASSIGNED LABEL: "Satisfied"
- SMILES INPUT: "CNC(=O)c1ccccc1Sc1ccc2c(/C=C/c3ccccn3)n[nH]c2c1"
  ASSIGNED LABEL: "Not satisfied"
- SMILES INPUT: "O=C(NC[C@H](O)CO)c1ccncc1Nc1ccc(I)cc1F"
  ASSIGNED LABEL: "Satisfied"
- SMILES INPUT: "CNC(=O)c1cccc(-c2ccc3c(N4CCOC[C@@H]4C)nc(N4CCOC[C@@H]4C)nc3n2)c1"
  ASSIGNED LABEL: "Satisfied"
- SMILES INPUT: "C=CCN(/C=C1/C(=O)O[C@H](COC)[C@@]2(C)C1=C(O)C(=O)C1=C2[C@H](OC(C)=O)C[C@]2(C)C(=O)CC[C@@H]12)CC=C"
  ASSIGNED LABEL: "Satisfied"
- SMILES INPUT: "N#CC[C@H](C1CCCC1)n1cc(-c2ncnc3[nH]ccc23)cn1"
  ASSIGNED LABEL: "Not satisfied"
- SMILES INPUT: "CNC(=O)c1cc(Oc2ccc(NC(=O)Nc3ccc(Cl)c(C(F)(F)F)c3)c(F)c2)ccn1"
  ASSIGNED LABEL: "Satisfied"
- SMILES INPUT: "CS(=O)(=O)N1CCN(Cc2cc3nc(-c4cccc5[nH]ncc45)nc(N4CCOCC4)c3s2)CC1"
  ASSIGNED LABEL: "Not satisfied"
- SMILES INPUT: "Cc1nc(NC(=O)N2CCC[C@H]2C(N)=O)sc1-c1ccnc(C(C)(C)C(F)(F)F)c1"
  ASSIGNED LABEL: "Not satisfied"
- SMILES INPUT: "COc1cc(O)c2c(c1)/C=C/C[C@H](O)[C@H](O)C(=O)/C=C\\C[C@H](C)OC2=O"
  ASSIGNED LABEL: "Not satisfied"

* * *

This section presents molecules with their documented ΔTm at 12.5 µM values.
Biological target: GAK (Homo sapiens)
Construct: catalytic domain-containing construct
Sequence (O14976 whole entry, the tested form may be a part): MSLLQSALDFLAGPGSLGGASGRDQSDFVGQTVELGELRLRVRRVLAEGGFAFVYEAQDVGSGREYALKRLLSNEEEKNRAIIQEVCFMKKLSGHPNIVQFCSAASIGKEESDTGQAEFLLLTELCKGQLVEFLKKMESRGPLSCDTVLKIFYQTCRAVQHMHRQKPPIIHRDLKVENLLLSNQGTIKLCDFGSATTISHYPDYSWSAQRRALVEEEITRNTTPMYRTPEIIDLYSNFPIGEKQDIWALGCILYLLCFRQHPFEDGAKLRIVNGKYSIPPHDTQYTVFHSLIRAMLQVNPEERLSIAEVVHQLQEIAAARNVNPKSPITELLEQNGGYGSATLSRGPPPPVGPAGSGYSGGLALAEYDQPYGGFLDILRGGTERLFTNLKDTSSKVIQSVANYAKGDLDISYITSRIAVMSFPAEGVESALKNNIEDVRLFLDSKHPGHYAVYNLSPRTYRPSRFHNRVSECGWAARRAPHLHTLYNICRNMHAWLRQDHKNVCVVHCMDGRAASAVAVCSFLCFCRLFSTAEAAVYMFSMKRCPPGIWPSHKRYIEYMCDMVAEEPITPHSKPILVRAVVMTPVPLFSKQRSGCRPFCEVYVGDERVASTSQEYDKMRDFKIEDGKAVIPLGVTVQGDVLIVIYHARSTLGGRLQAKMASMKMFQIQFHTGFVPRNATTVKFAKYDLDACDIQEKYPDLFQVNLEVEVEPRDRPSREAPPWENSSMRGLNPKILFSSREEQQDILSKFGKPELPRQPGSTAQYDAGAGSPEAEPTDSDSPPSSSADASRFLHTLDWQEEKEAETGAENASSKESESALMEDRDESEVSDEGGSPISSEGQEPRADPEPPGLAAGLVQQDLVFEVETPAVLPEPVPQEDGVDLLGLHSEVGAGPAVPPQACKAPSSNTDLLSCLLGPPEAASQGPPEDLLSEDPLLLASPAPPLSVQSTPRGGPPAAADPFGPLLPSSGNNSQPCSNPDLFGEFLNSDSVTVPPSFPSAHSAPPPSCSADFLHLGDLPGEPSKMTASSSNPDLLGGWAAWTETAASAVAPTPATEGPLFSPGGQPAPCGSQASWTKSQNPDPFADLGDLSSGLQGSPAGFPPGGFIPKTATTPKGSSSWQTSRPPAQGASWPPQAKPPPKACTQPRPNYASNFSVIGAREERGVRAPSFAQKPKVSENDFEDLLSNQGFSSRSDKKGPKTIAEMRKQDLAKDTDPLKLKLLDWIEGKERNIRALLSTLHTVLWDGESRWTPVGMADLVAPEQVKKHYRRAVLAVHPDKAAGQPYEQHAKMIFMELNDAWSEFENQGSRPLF
Test: biochemical
Set-up: Thermal shift assay (DSF, SYPRO Orange), 2 uM kinase domain, mean delta Tm of triplicates versus DMSO
Conditions: read-out: GAK
ASSAY ENDPOINT: ΔTm at 12.5 µM (°C)

- MOLECULE: "Cc1c(NC(=O)OC[C@@H]2COCCN2)cn2ncnc(Nc3ccc4c(cnn4Cc4cccc(F)c4)c3)c12 [BMS-599626]"
  VAL: 2.18
- MOLECULE: "CN1CCN(c2nc(C3=C(c4c[nH]c5ccccc45)C(=O)NC3=O)c3ccccc3n2)CC1 [Sotrastaurin]"
  VAL: 0.62
- MOLECULE: "C[C@@H](Oc1ccc2[nH]nc(/C=C/c3cnn(CCO)c3)c2c1)c1c(Cl)cncc1Cl [LY2874455]"
  VAL: 5.81
- MOLECULE: "COc1cc2ncnc(Nc3ccc(F)c(Cl)c3)c2cc1OCCCN1CCOCC1 [Gefitinib]"
  VAL: 6.66
- MOLECULE: "CC(C)NC[C@@H](C(=O)N1CCN(c2ncnc3c2[C@H](C)C[C@H]3O)CC1)c1ccc(Cl)cc1 [Ipatasertib]"
  VAL: -0.727
- MOLECULE: "COc1ccc(-c2ccc3c(N4CCOC[C@@H]4C)nc(N4CCOC[C@@H]4C)nc3n2)cc1CO [AZD8055]"
  VAL: -0.753
- MOLECULE: "CC(C)(C)c1nc(-c2cccc(NS(=O)(=O)c3c(F)cccc3F)c2F)c(-c2ccnc(N)n2)s1 [Dabrafenib]"
  VAL: 9.06
- MOLECULE: "CCS(=O)(=O)N1CC(CC#N)(n2cc(-c3ncnc4[nH]ccc34)cn2)C1 [baricitinib]"
  VAL: 2.06
